# System: PyIESI-1 RRM domain (Plasmodium yoelii PY17X_0911200 aa 795-956, GST fusion)
# Measurement protocol: RBNS R-value (6-mer enrichment in protein-bound RNA vs input library) (ratio); higher = stronger binding preference
# Stated conditions: protein concentration: 1000 nM
Over roughly 4,100 sequences, “RBNS R-value (6-mer enrichment in protein-bound RNA vs input library)” has its median near 0.96; the highest 2% begin near 2.4. This is one part of a sample in which the highest values are shown more often than they occur.
Categorized via RBNS R-value: lower level: < 1; middle level: ≥ 1 and < 2; upper level: ≥ 2

For this sequence, which bin applies? CCUGAC middle level

For this sequence, which bin applies? GAUGGU middle level

For this sequence, which bin applies? GUAAAA lower level

For this sequence, which bin applies? UCUGAC middle level

For this sequence, which bin applies? GCUACU lower level

For this sequence, which bin applies? GAUGAU upper level

For this sequence, which bin applies? GAUGAC upper level

For this sequence, which bin applies? UCCGUG middle level

For this sequence, which bin applies? CGCUUA lower level

For this sequence, which bin applies? GCUGAC middle level

For this sequence, which bin applies? AGUGUA lower level

For this sequence, which bin applies? GAUUUG upper level

For this sequence, which bin applies? AAUGAC middle level

For this sequence, which bin applies? GAUGAA upper level

For this sequence, which bin applies? UCAUUU lower level

For this sequence, which bin applies? CAUUUU lower level

For this sequence, which bin applies? CCUGAA middle level

###

# Test system: PyIESI-1 RRM domain (Plasmodium yoelii PY17X_0911200 aa 795-956, GST fusion)
# Measurement protocol: RBNS R-value (6-mer enrichment in protein-bound RNA vs input library) (ratio); higher = stronger binding preference
# Stated conditions: protein concentration: 1000 nM
In all, about 4,100 sequences were measured (“RBNS R-value (6-mer enrichment in protein-bound RNA vs input library)”: median about 0.96, highest 2% from about 2.4 on). For the sample, the highest values were picked, then their nearest neighbours and some sequences at random.
Response key: criterion met means RBNS R-value >= 1; criterion not met means RBNS R-value < 1.

Worked examples, 2 sequences total:
GUUGAG :: criterion not met
UAGGAG :: criterion not met

Determine whether measured RBNS R-value meets or exceeds 1 for GGAUAG criterion not met

Determine whether measured RBNS R-value meets or exceeds 1 for AGAUGA criterion met

Determine whether measured RBNS R-value meets or exceeds 1 for AGAUGU criterion met

Determine whether measured RBNS R-value meets or exceeds 1 for GUAUGU criterion not met

Determine whether measured RBNS R-value meets or exceeds 1 for CUAAGC criterion not met

Determine whether measured RBNS R-value meets or exceeds 1 for AUCUGU criterion not met

Determine whether measured RBNS R-value meets or exceeds 1 for UAUGUA criterion not met

###

Documented RBNS R-value across a set of sequences
# System: PyIESI-1 RRM domain (Plasmodium yoelii PY17X_0911200 aa 795-956, GST fusion)
# Measurement protocol: RBNS R-value (6-mer enrichment in protein-bound RNA vs input library) (ratio); higher = stronger binding preference
# Stated conditions: protein concentration: 500 nM
Whole data set: some 4,100 sequences, median “RBNS R-value (6-mer enrichment in protein-bound RNA vs input library)” near 0.96, cut for the highest 2% near 2.4. The full list was thinned out, with the highest values kept by preference.
Would you mind answering with just the numeric figure?

// known answers, use as guide
GAUGCC :: 2.6
GUGAUU :: 4.24

Provide the reported RBNS R-value (system: PyIESI-1 RRM domain (Plasmodium yoelii PY17X_0911200 aa 795-956, GST fusion)) for AACCAG 0.9

Provide the reported RBNS R-value (system: PyIESI-1 RRM domain (Plasmodium yoelii PY17X_0911200 aa 795-956, GST fusion)) for UUGAGU 1.07

Provide the reported RBNS R-value (system: PyIESI-1 RRM domain (Plasmodium yoelii PY17X_0911200 aa 795-956, GST fusion)) for GAUGUC 2.44

Provide the reported RBNS R-value (system: PyIESI-1 RRM domain (Plasmodium yoelii PY17X_0911200 aa 795-956, GST fusion)) for GCGACC 1.08

Provide the reported RBNS R-value (system: PyIESI-1 RRM domain (Plasmodium yoelii PY17X_0911200 aa 795-956, GST fusion)) for CGUGCU 0.973

Provide the reported RBNS R-value (system: PyIESI-1 RRM domain (Plasmodium yoelii PY17X_0911200 aa 795-956, GST fusion)) for CGUUUG 1.09

###

# System: PyIESI-1 RRM domain (Plasmodium yoelii PY17X_0911200 aa 795-956, GST fusion)
# Measurement protocol: RBNS R-value (6-mer enrichment in protein-bound RNA vs input library) (ratio); higher = stronger binding preference
# Stated conditions: protein concentration: 250 nM
The full ranking holds about 4,100 sequences; the median of “RBNS R-value (6-mer enrichment in protein-bound RNA vs input library)” is about 0.96, and the highest 2% start at about 2.4. This is one part of a sample in which the highest values are shown more often than they occur.
Documented RBNS R-value across a set of sequences

GGGCUU :: 1.01
UAUUCU :: 0.707
AGAUGU :: 1.45
CUGACA :: 1.26
AUCUGU :: 0.889
AAUUCG :: 1.08

Answer with the recorded RBNS R-value for the sequence listed here: GUGAAA 0.997

Answer with the recorded RBNS R-value for the sequence listed here: GAGGAG 1.12

Answer with the recorded RBNS R-value for the sequence listed here: CGGAUG 1.22

Answer with the recorded RBNS R-value for the sequence listed here: UGAUGU 7

Answer with the recorded RBNS R-value for the sequence listed here: CUGAUA 3.66

Answer with the recorded RBNS R-value for the sequence listed here: GGAUAU 0.856

Answer with the recorded RBNS R-value for the sequence listed here: GAUUCG 2.64

Answer with the recorded RBNS R-value for the sequence listed here: GAUGUU 2.92

Answer with the recorded RBNS R-value for the sequence listed here: CUCGGA 0.971

###

# Tested on: PyIESI-1 RRM domain (Plasmodium yoelii PY17X_0911200 aa 795-956, GST fusion)
# Measurement protocol: RBNS R-value (6-mer enrichment in protein-bound RNA vs input library) (ratio); higher = stronger binding preference
# Stated conditions: protein concentration: 500 nM
Over roughly 4,100 sequences, “RBNS R-value (6-mer enrichment in protein-bound RNA vs input library)” has its median near 0.96; the highest 2% begin near 2.4. The sample holds the highest values, similar sequences and a random draw of the others, so the mix is not that of the screen.
Result type: RBNS R-value
Would you mind answering with just the numeric figure?

// known answers, use as guide
AAUGAA :: 1.02
UGCUCA :: 0.977
GGUGAA :: 1.02

Please examine the following record next.
Answer with the recorded RBNS R-value for the sequence listed here: GGUGAG 0.993

###

# Test system: PyIESI-1 RRM domain (Plasmodium yoelii PY17X_0911200 aa 795-956, GST fusion)
# Measurement protocol: RBNS R-value (6-mer enrichment in protein-bound RNA vs input library) (ratio); higher = stronger binding preference
# Stated conditions: protein concentration: 250 nM
The full ranking holds about 4,100 sequences; the median of “RBNS R-value (6-mer enrichment in protein-bound RNA vs input library)” is about 0.96, and the highest 2% start at about 2.4. The sample holds the highest values, similar sequences and a random draw of the others, so the mix is not that of the screen.
Response key: t means RBNS R-value >= 1; f means RBNS R-value < 1.

Worked examples, 5 sequences total:
AAUGAU :: t
UGAUGC :: t
UUUUGA :: t
CCUAGC :: f
CAUGCU :: f

Determine whether measured RBNS R-value meets or exceeds 1 for GAUGCA t

Determine whether measured RBNS R-value meets or exceeds 1 for GCAGUG t

Determine whether measured RBNS R-value meets or exceeds 1 for UCGAUG t

Determine whether measured RBNS R-value meets or exceeds 1 for CGAUGG t

Determine whether measured RBNS R-value meets or exceeds 1 for GAUUGG t

###

# System: PyIESI-1 RRM domain (Plasmodium yoelii PY17X_0911200 aa 795-956, GST fusion)
# Measurement protocol: RBNS R-value (6-mer enrichment in protein-bound RNA vs input library) (ratio); higher = stronger binding preference; the methods of the paper give 50 / 100 / 500 nM protein instead
# Stated conditions: protein concentration: 500 nM
Whole data set: some 4,100 sequences, median “RBNS R-value (6-mer enrichment in protein-bound RNA vs input library)” near 0.96, cut for the highest 2% near 2.4. This excerpt belongs to a sample that is enriched for the highest values.
Response key: YES means RBNS R-value >= 1; NO means RBNS R-value < 1.

Worked examples, 5 sequences total:
GAUCUA :: YES
GAUCGG :: NO
CUAAGC :: NO
UGAUCU :: YES
GUUGAG :: NO

Determine whether measured RBNS R-value meets or exceeds 1 for AUGAUA YES

Determine whether measured RBNS R-value meets or exceeds 1 for GUAAGU NO

Recorded values, source the supplement of paper PMC13392028.
